Known Neutralization IC50, H6-HK97 of a selection of binders
# target_or_system: HA of ca A/teal/Hong Kong/W312/97 (H6N1) (influenza A virus)
# assay_overview: cell-based or functional assay
Write the value in µg/mL as a bare number.

The binder listed as Antibody 5 (antibody, V domains shown) VH: QVQLQQSGPGLVKPSQTLSLTCAISGDRVSSNSAVWNWIRQSPSRGLEWLGRTYYRSKWYYDYAESVKSRIVIDPDTSKNQVSLQLNSVTPEDSAIYYCARGGHITVFGLNIDAYDIWGQGAMVTVSS VL: DIQMTQSPSSLSASVGDRVTISCRAQSLSSYLHWYQQKPGQPPKLLIYAATTLQSGVPSRFSGSGSGTDFTLTISTFQAEDVATYYCQQSRTFGQGTKVEIK has a reported Neutralization IC50, H6-HK97 of 2.27

// sample Antibody 3 (antibody, V domains shown) VH: QVQLQESGPGLVKPSQTLSLTCAISGDSVSSNNAVWNWIRQSPSRGLEWLGRTYYRSKWYNDYAESVKSRITVNPDTSKNQFSLHLKSVTPEDTAVFYCVRSGHITVFGVNVDAFDMWGQGTMVTVSS VL: DIQMTQSPSSLSASVGDRVTITCRTSQSLSSYLHWYQQKPGKAPKLLIYAASSLQSGVPSRFSGSGSGTDFTLTISSLQPEDFATYYCQQSRTFGQGTKVEIK , its Neutralization IC50, H6-HK97 was 1.77

GET /value?item= Antibody 6 (antibody, V domains shown) VH: QVQLQQSGPGLVKPSQTLSLTCAISGDRVSSNSAVWNWIRQSPSRGLEWLGRTYYRSKWYYDYAESVKSRIVIDPDTSKNQVSLQLNSVTPEDSAIYYCARGGHITEFGLNIDAYDIWGQGAMVTVSS VL: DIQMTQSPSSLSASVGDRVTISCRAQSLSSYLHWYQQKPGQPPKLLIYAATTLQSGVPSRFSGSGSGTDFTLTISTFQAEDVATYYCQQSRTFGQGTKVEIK &field=Neutralization IC50, H6-HK97 returns 3.23

More entries:
For this binder ( Antibody 8 (antibody, V domains shown) VH: QVQLQQSGPGLVKPSQTLSLTCVISGDTVSSNRATWNWMRQSPLRGLEWLGRTYYRSKWYNDYAVSVKSRVVINPDTSKNQVSLQLNTVTPDDSGVYFCARGGHITVFGVNIDAFDIWGLGTKVTVSS VL: DIQMTQSPSSLSASVGDRVTISCRASQRLNSYLHWYQQTPGQAPKLLIYATSTLQSGVSPRFSGSGSGTDFTLTISSLQPEDVATYYCQLSRTFGHGTKVEIK ), measured Neutralization IC50, H6-HK97 is 2.97
